test target: Human Thrombin (Homo sapiens, UniProt P00734)
assay text: Inhibition of amidase activity of thrombin (Kass)
Type: biochemical
condition context: apparent association constant, mean over a range of concentrations
measurement label: Enzyme Kass, Human Thrombin (L/mol × 10^6)
Numbers only; they are read as L/mol × 10^6.

Request: Recorded Enzyme Kass, Human Thrombin for Cl.Cl.N=C(N)NCCC[C@@H](C=O)NC(=O)[C@@H]1C[C@H](Oc2ccccc2)CN1C(=O)C1NCCC2CCCCC21 (relative stereo) [Example 15, D-1-Piq-Pro(4-cis-phenoxy)-ArgH.2 HCl] with Human Thrombin (Homo sapiens, UniProt P00734), please?
Response: 230

Request: What about this molecule? C[C@H]1C[C@@H](C(=O)N[C@H](C=O)CCCNC(=N)N)N(C(=O)[C@H]2CCCCN2)C1.Cl.Cl (relative stereo)
Response: 220

Request: What about this molecule? Cl.Cl.N=C(N)NCCC[C@@H](C=O)NC(=O)[C@@H]1C[C@H](Oc2ccc(C(=O)O)cc2)CN1C(=O)[C@H]1CCCCN1 (relative stereo)
Response: 4.5

Request: What about this molecule? CC(=O)Nc1cccc(O[C@H]2C[C@@H](C(=O)N[C@H](C=O)CCCNC(=N)N)N(C(=O)[C@H]3CCCCN3)C2)c1.Cl.Cl (relative stereo)
Response: 6.1

Request: What about this molecule? Cl.Cl.N=C(N)NCCC[C@@H](C=O)NC(=O)[C@@H]1C[C@H](Cc2ccccc2)CN1C(=O)[C@H]1CCCCN1 (relative stereo) [Example 5, D-hPro-Pro(4-cis-benzyl)-ArgH.2 HCl]
Response: 110

Request: What about this molecule? Cl.Cl.N=C(N)NCCC[C@H](C=O)NC(=O)[C@@H]1C[C@H](Oc2ccccc2)CN1C(=O)[C@H]1CCCCN1 (relative stereo)
Response: 50

Request: What about this molecule? CC(C)CC[C@H]1C[C@@H](C(=O)N[C@H](C=O)CCCNC(=N)N)N(C(=O)C2NCCC3CCCCC32)C1.Cl.Cl (relative stereo) [Example 28, 1-Piq-Pro(4-cis-isoamyl)-ArgH.2 HCl]
Response: 0.41

Request: What about this molecule? CC(C)CC[C@H]1C[C@@H](C(=O)N[C@H](C=O)CCCNC(=N)N)N(C(=O)[C@H]2CCCCN2)C1.Cl.Cl (relative stereo)
Response: 8.2

Request: What about this molecule? Cl.Cl.Cl.N=C(N)NCCC[C@@H](C=O)NC(=O)[C@@H]1C[C@H](Oc2cccnc2)CN1C(=O)[C@H]1CCCCN1 (relative stereo)
Response: 37

Request: What about this molecule? Cl.Cl.NC(N)=NCCCC(C=O)NC(=O)C1CC(Oc2ccccc2)CN1C(=O)C1CC2CCCCC2CN1 (stereo not shown)
Response: 15.6
